- Test system: acute myeloid leukemia cells (MOLM-13)
- procedure_summary: In vitro potency (CellTiter-Glo, 96 h), MOLM-13
- Assay type: cell-based
- condition_parameters: Homo sapiens, MOLM-13, 96 h, read-out: MOLM-13 IC50, camptothecin free drug, 96 h
outcome_measure: log10 of IC50 (log10 of the value in nM)

{"columns": ["compound", "log10 of IC50"],
 "data": [
  ["CC[C@@]1(O)C(=O)OCc2c1cc1n(c2=O)Cc2c-1nc1cc3c(cc1c2CNCCCN(C)C)OCO3", 2.51],
  ["CC[C@@]1(O)C(=O)OCc2c1cc1n(c2=O)Cc2c-1nc1cc3c(cc1c2CNCCN1CCN(C)CC1)OCO3", 2.73],
  ["CC[C@@]1(O)C(=O)OCc2c1cc1n(c2=O)Cc2c-1nc1cc3c(cc1c2CNCC(O)CO)OCO3 (stereo partly shown)", 2.76],
  ["CC[C@@]1(O)C(=O)OCc2c1cc1n(c2=O)Cc2c-1nc1cc3c(cc1c2CNCC(O)CN1CCCCC1)OCO3 (stereo partly shown)", 1.75],
  ["CC[C@@]1(O)C(=O)OCc2c1cc1n(c2=O)Cc2c-1nc1cc3c(cc1c2CNCCCO)OCO3", 2.06],
  ["CC[C@@]1(O)C(=O)OCc2c1cc1n(c2=O)Cc2c-1nc1cc3c(cc1c2CNCCCS(N)(=O)=O)OCO3", 2.41],
  ["CC[C@@]1(O)C(=O)OCc2c1cc1n(c2=O)Cc2c-1nc1cc3c(cc1c2CNCC(O)CN1CCOCC1)OCO3 (stereo partly shown)", 2.49]
]}
